Consider the following compounds; for each one, report its TGI.
- Test system: COLO 205 colon
- MEASUREMENT_NOTES: NCI tumour cell line growth inhibition, 48 h

Completed entries (count: 4):
COc1cc2c(cc1OC)-c1ncc3cc(OC)c(OC)cc3c1C2; > 50 µM
COc1ccc(Br)c(C=Nc2cccc3cc(OC)c(OC)cc23)c1; > 100 µM
Cc1ccc(N2C3=C(CC4=C2CC(C)(C)CC4=O)C(=O)CC(C)(C)C3)cc1; > 100 µM
NC(Cc1ccc(O)cn1)C(=O)O (configuration not stated); > 100 µM

Respectfully, I request TGI for each entry included below.
1. CCSc1nc(C)nc2c1sc1nc3ccccc3n12
2. CC(=O)OC1(C#N)CC2OC1C1N=NN(C(=O)OC(C)(C)C)C21 (configuration not stated)
3. CCCCC(N)CSSCC(N)CCCC (configuration not stated)

Output line:
1: > 100 µM; 2: > 100 µM; 3: > 100 µM

Respectfully, I request TGI for each entry included below.
1. COc1cc(OC2OC(CO)C(O)C(O)C2O)c2c(c1)O[C@@H]1[C@H](O)Oc3cc(OC)c(OC)cc3[C@]1(O)C2=O (some centres not stated)
2. C=C(C)C1CC2=C(O1)C(=O)c1cccc(O)c1C2=O (configuration not stated)
3. Clc1nc(Nc2nc3ccccc3[nH]2)nc(Cl)c1-c1ccccc1
4. N#Cc1ccc(NC(=O)Nc2nc3ccc(OC(F)(F)F)cc3s2)cc1
5. C=C(C)[C@@H]1CC[C@]2(CN)CC[C@]3(C)[C@H](CC[C@@H]4[C@@]5(C)CCC(N)[C@@](C)(CO)[C@@H]5CC[C@]43C)[C@@H]12 (some centres not stated)

Output line:
> 25 µM
3.25 µM
51.3 µM
3.9 µM
3.38 µM

###

- Test system: HS 578T breast
- MEASUREMENT_NOTES: NCI tumour cell line growth inhibition, 48 h
Consider the following molecules; for each one, report its TGI.

Completed entries (count: 5):
COc1ccc(-c2nc(SC)n(C3OC(COC(C)=O)C(OC(C)=O)C(OC(C)=O)C3OC(C)=O)c(=O)c2C#N)cc1 (stereo unspecified); > 100 µM
c1ccc(N2N=C3N(c4ccccc4)C2N3c2ccccc2)cc1; > 100 µM
C#CCOC(=O)[C@@H](C)c1ccc2cc(OC)ccc2c1; > 100 µM
CCC1(N)C(=O)OCc2c1cc1n(c2=O)Cc2cc3ccccc3nc2-1 (stereo unspecified); > 100 µM
COc1ccc(NC(=O)CC(=O)N2N=C(C)C(N=Nc3ccc(C(=O)O)cc3)C2=O)cc1 (stereo unspecified); > 100 µM

For the next question, use this molecule.
Input line: Look up and report measured TGI (HS 578T breast) for the following molecule: COC(=O)[C@]1(Cc2ccc3ccccc3c2)CCCCCCN1C(=O)c1ccccc1
Output line: > 56.1 µM

###

Consider the following compounds; for each one, report its TGI.
- System: TK-10 renal
- MEASUREMENT_NOTES: NCI tumour cell line growth inhibition, 48 h
Where a SMILES comes first, the peptide text is derived from it. [ ]: non-standard residue; d: D form. The star is where a group is joined. ξ: configuration not given here. ξPhe(4-NO2) = NC(Cc1ccc([N+](=O)[O-])cc1)C(=O)O; Boc = CC(C)(C)OC(=O)*

Completed entries (count: 5):
CC(C)C1=CC23CCC4C(C)(C(=O)O)CCCC4(C)C2CC1C1C(=O)N(c2cccc(N4C(=O)C5C6CC7C8(C)CCCC(C)(C(=O)O)C8CCC7(C=C6C(C)C)C5C4=O)c2)C(=O)C13 (configuration not stated); 30.4 µM
COc1ccccc1N1CCN(CCCOc2ccc(C(=O)/C=C3/C(=O)Nc4ccccc43)cc2)CC1; > 67.7 µM
CCCC(=O)Nc1c(I)cc(I)c(CC(CC)C(=O)O)c1I (configuration not stated); > 100 µM
COC1C(OC(C)=O)CC(=O)OC(C)C/C=C/C=C\C(O)C(C)CC(CC=O)C1OC1OC(C)C(OC2CC(C)(O)C(OC(=O)CC(C)C)C(C)O2)C(N(C)C)C1O (configuration not stated); > 100 µM
CCNC(=O)CNC(=O)C(Cc1ccc([N+](=O)[O-])cc1)NC(=O)OC(C)(C)C (configuration not stated) (Boc-[ξPhe(4-NO2)]-Gly-NHEt); > 100 µM

Respectfully, I request TGI for each entry included below.
1. Nc1nc(Cl)c(C=O)c(NCC2(CO)CCC2)n1
2. CCCCCCC(=O)c1ccc2ccccc2c1O

Output line:
1. > 100 µM
2. > 100 µM

###

- Test system: K-562 leukemia
- MEASUREMENT_NOTES: NCI tumour cell line growth inhibition, 48 h
Consider the following compounds; for each one, report its TGI.

Completed entries (count: 6):
C=C(C)[C@@H]1CC[C@]2(CN)CC[C@]3(C)[C@H](CC[C@@H]4[C@@]5(C)CCC(N)[C@@](C)(CO)[C@@H]5CC[C@]43C)[C@@H]12 (some centres undefined); 1.06 µM
COc1ccc2c(c1)C(=O)[C@@](Nc1ccc(C=O)cc1)(OC)[C@@](OC)(c1ccc([N+](=O)[O-])cc1)O2; > 10 µM
COc1c(Cl)[c]([Hg][O]C(C)=O)c(NCC(C)=O)c(OC)[c]1[Hg][O]C(C)=O; > 100 µM
CC1=CC2=C(C#N)C(=O)OC2(C)C(c2ccccc2)C1 (centres undefined); > 100 µM
CC(=O)OC1(C#N)CC2OC1C1N=NN(C(=O)OC(C)(C)C)C21 (centres undefined); > 100 µM
COc1ccc(OCC(C)(C)O)cc1; > 100 µM

Respectfully, I request TGI for each entry included below.
1. CCOc1ncnc2ccc(Cl)c(I)c12
2. CN(C(=O)c1ccc(Cl)cc1)C(=S)N1CCN(c2ccccc2)CC1
3. CC1(C)Oc2ccccc2[N+]([O-])=C1c1ccccc1

Output line:
1. > 100 µM
2. > 100 µM
3. > 100 µM

###

- Test system: RPMI-8226 leukemia
- MEASUREMENT_NOTES: NCI tumour cell line growth inhibition, 48 h
Where a SMILES comes first, the peptide text is derived from it. [ ]: non-standard residue; d: D form. The star is where a group is joined. ξ: configuration not given here. ξPhe(4-NO2) = NC(Cc1ccc([N+](=O)[O-])cc1)C(=O)O; Boc = CC(C)(C)OC(=O)*
METRIC: TGI

Completed entries (count: 10):
CC1(C)Oc2ccccc2[N+]([O-])=C1c1ccccc1; > 100 µM
CC1(C)/C(=N\Nc2ccc([N+](=O)[O-])cc2[N+](=O)[O-])C2CCC1C2 (stereo unspecified); > 100 µM
CC(=O)OCCCCn1cnc2c(Cl)nc(Nc3ccccc3)nc21; > 100 µM
COc1ccc(Br)c(C=Nc2cccc3cc(OC)c(OC)cc23)c1; > 46.3 µM
COc1ccc(C(=O)N(Cc2cccnc2)C(=S)N(Cc2cccnc2)C(=O)c2ccc(OC)cc2)cc1; > 100 µM
CCNC(=O)CNC(=O)C(Cc1ccc([N+](=O)[O-])cc1)NC(=O)OC(C)(C)C (stereo unspecified) (Boc-[ξPhe(4-NO2)]-Gly-NHEt); > 100 µM
O=C(Nc1ccc(-n2ccc3c(NC(=O)c4ccccc4)nccc32)cc1)c1ccc(N2CCOCC2)c(C(F)(F)F)c1; > 100 µM
COc1ccc2c(c1)C(=O)[C@@](Nc1ccc(C=O)cc1)(OC)[C@@](OC)(c1ccc([N+](=O)[O-])cc1)O2; > 10 µM
CCOC(=O)c1csc(-c2nc(CCNC(=O)c3ccccc3)sc2Cl)n1; > 100 µM
NC(Cc1ccc(O)cn1)C(=O)O (stereo unspecified); > 100 µM

Respectfully, I request TGI for each entry included below.
1. CCCCSC1=N/C(=C\c2ccc(N(C)C)cc2)C(Cl)=N1
2. COc1ccc2[nH]c3c(C)c4ncccc4c(C)c3c2c1

Output line:
> 100 µM
7.56 µM

Respectfully, I request TGI for each entry included below.
1. Cc1nn(C(=O)c2ccncc2)c2c1C(c1ccc([N+](=O)[O-])cc1)SC(N)=N2 (stereo unspecified)
2. CC(=O)Oc1cc(Cl)c(OC(C)=O)c2c(OC(C)=O)c(C)c(O[Si](C)(C)C(C)(C)C)cc12
3. C=C(C)C1CC2=C(O1)C(=O)c1cccc(O)c1C2=O (stereo unspecified)
4. O=C(COC(=O)c1cccc2c(=O)c3ccccc3[nH]c12)Nc1ccc(S(=O)(=O)Nc2ncccn2)cc1

Output line:
1. > 100 µM
2. 9.41 µM
3. 1.22 µM
4. > 100 µM

###

- Test system: HOP-92 NSCLC
- MEASUREMENT_NOTES: NCI tumour cell line growth inhibition, 48 h
Consider the following compounds; for each one, report its TGI.

C[C@H]1[C@H](C)CC[C@]2(C(=O)OC3OC(CO)C(O)C(O)C3O)CC[C@]3(C)C(=CC[C@@H]4[C@@]5(C)C[C@@H](O)[C@@H]6OC(=O)c7cc(O)c(O)c(O)c7-c7c(cc(O)c(O)c7O)C(=O)OC[C@]6(CO)[C@@H]5CC[C@]43C)[C@H]12 (some centres undefined); > 100 µM

Respectfully, I request TGI for each entry included below.
1. N#CC(C(=O)O)C(c1c(Cl)cccc1Cl)C(C#N)C(=O)O (centres undefined)
2. FC(F)(F)C1(c2ccccc2)SCc2nc3ccccc3n21 (centres undefined)
3. COc1cc(OC2OC(CO)C(O)C(O)C2O)c2c(c1)O[C@@H]1[C@H](O)Oc3cc(OC)c(OC)cc3[C@]1(O)C2=O (some centres undefined)

Output line:
1: > 100 µM; 2: > 100 µM; 3: > 25 µM

Respectfully, I request TGI for each entry included below.
1. CC(=O)OCc1nnn2c1CCC2
2. O=C1/C(=C\c2cccc(Oc3ccccc3)c2)SC(c2ccccc2)N1c1cccc(Cl)c1 (centres undefined)
3. CO/N=C(\C(=O)[N-][n+]1cnn(CC(=O)O)c1)c1csc(N)n1
4. CC1(C)/C(=N\Nc2ccc([N+](=O)[O-])cc2[N+](=O)[O-])C2CCC1C2 (centres undefined)
5. CCN(CC)c1ccc(/C=N/NC(=O)c2ccccc2Nc2ccnc(C(F)(F)F)c2)c(O)c1

Output line:
1. > 100 µM
2. > 100 µM
3. > 10 µM
4. > 100 µM
5. > 100 µM
